Below, each of the molecules is paired with its reported GI50 value.
# Test system: SK-OV-3
# protocol.details: NCI tumour cell line growth inhibition, 48 h
Active and inactive are the calls of the source. Cut-off read from the data, not from the text of the source: active = GI50 up to about 1.1 µM and inactive = higher.

Example molecules with recorded GI50:
{"molecule": "COc1ccc(/C=C/c2ccnc3ccccc23)c(OC)c1", "assay.system": "SK-OV-3", "GI50": "> 10 µM (inactive)"}
{"molecule": "Cc1ccc(/N=C/c2ccc3c(c2)OCO3)cc1C", "assay.system": "SK-OV-3", "GI50": "> 100 µM (inactive)"}
{"molecule": "c1ccc(C2N3CCCCC3[C@@H]3c4[nH]c5ccccc5c4CCN23)nc1 (stereo partly specified)", "assay.system": "SK-OV-3", "GI50": "> 100 µM (inactive)"}

(Q) Fill blank: measured GI50 of the molecule O=S(=O)(O)c1ccc(/N=N/c2ccc(/N=N/c3c(O)ccc4ccc(S(=O)(=O)O)cc34)cc2)cc1 is ____.
(A) > 100 µM (inactive)

(Q) // query GI50 value for entry N=C(N)NC(=N)Nc1ccc(S(=O)(=O)O)cc1
(A) > 100 µM (inactive)

(Q) Consider the molecule Fc1cccc(C2SCc3nc4ccccc4n32)c1 (stereo unspecified) and give its measured GI50.
(A) 50.8 µM (inactive)
